The measured values listed here are drawn from patent US20090069320A1.

SYSTEM TESTED: mGluR5 receptor (Sus scrofa)
Construct: 450 μg of protein from brain homogenate with 5 nM ^3[H]-MPEP; from tissue; host or cells: pig brain halves without medulla, cerebellum and pons
ASSAY PROTOCOL: [3H]-MPEP mGluR5 receptor binding assay (pig brain homogenate)
MEASUREMENT CONTEXT: 10 μM compound, 5 nM [3H]-MPEP, read-out: % Inhibition of mGluR5 Receptor (pig) [^3H]-MPEP Bond at 10 μM
Structures can show the parent of a compound that is named as a salt.
READOUT KIND: inhibition at 10 µM (%)

Example entries and their recorded answers appear below.
| MOLECULE | SYSTEM TESTED | inhibition at 10 µM [%] |
| --- | --- | --- |
| Cc1cc2ncnc(NC3CC3)c2cc1-c1cccc(CN(C(=O)CN(C)C)C2CC2)c1 | mGluR5 receptor (Sus scrofa) | 43 |
| CC(=O)OCN(Cc1cccc(-c2ccc3ncnc(NC4CC4)c3c2)c1)C(C)=O | mGluR5 receptor (Sus scrofa) | 39 |
| O=C1c2ccccc2C(=O)N1Cc1cccc(-c2ccc3ncnc(NC4CC4)c3c2)c1 [Example 241, hydrochloride] | mGluR5 receptor (Sus scrofa) | 33 |
| CC(C)(C)C(=O)N(Cc1cccc(-c2cc(F)c3ncnc(NC4CC4)c3c2)c1)C1CC1 | mGluR5 receptor (Sus scrofa) | 86 |
| O=C(c1c(F)c(F)c(F)c(F)c1F)N(Cc1cc(-c2ccc3ncnc(NC4CC4)c3c2)ccc1F)C1CC1 | mGluR5 receptor (Sus scrofa) | 91 |
| O=C(c1cccs1)N(Cc1cc(-c2ccc3ncnc(NC4CC4)c3c2)ccn1)C1CC1 | mGluR5 receptor (Sus scrofa) | 71 |
| Cc1cc2ncnc(NC3CC3)c2cc1-c1cccc(CN(C2CC2)S(=O)(=O)c2cccs2)c1 | mGluR5 receptor (Sus scrofa) | 74 |
| O=C(Cc1ccccc1)N(Cc1cc(-c2ccc3ncnc(NC4CC4)c3c2)ccc1F)C1CC1 | mGluR5 receptor (Sus scrofa) | 95 |
| Cc1nc(NC2CC2)c2cc(-c3cccc(CN(C(=O)c4cccc(C(F)(F)F)c4)C4CC4)c3)ccc2n1 | mGluR5 receptor (Sus scrofa) | 48 |
| O=C(c1cccc(F)c1)N(Cc1cc(-c2ccc3ncnc(NC4CC4)c3c2)ccc1Cl)C1CC1 | mGluR5 receptor (Sus scrofa) | 89 |

[A] O=C(c1ccc(F)cc1F)N(Cc1cc(-c2ccc3ncnc(NC4CC4)c3c2)ccn1)C1CC1
[B] CCCN(Cc1cccc(-c2ccc3ncnc(Nc4ccccc4)c3c2)c1)C(=O)c1sccc1C
Lower value of inhibition at 10 µM belongs to which: A or B ? Respond using the label that marks the chosen record. B
(B: 43%, A: 71%)

[1] CN(C)CC(=O)N(Cc1cc(-c2ccc3ncnc(NC4CC4)c3c2)ccc1F)C1CC1
[2] O=C(c1ccccc1Br)N(Cc1cccc(-c2ccc3ncnc(NC4CC4)c3c2)c1)C1CC1
Which has the higher inhibition at 10 µM, 1 or 2 ? Mark your answer with the label of the selected entry. 2

[I] Cc1cc2ncnc(NC3CC3)c2cc1-c1cccc(CN(C(=O)c2cccs2)C2CC2)c1
[II] COCC(=O)N(Cc1cccc(-c2ccc3ncnc(NCc4cccc(C)c4)c3c2)c1)C1CC1
[III] Cc1ccc(C(=O)N(Cc2cccc(-c3ccc4ncnc(N5CCOCC5)c4c3)c2)CC(C)C)cc1
Put these in order: smallest inhibition at 10 µM first, largest last. Give the labels in the order requested. III, II, I

[A] COCC(=O)N(Cc1cccc(-c2cc3c(NC4CC4)ncnc3cc2C)c1)C1CC1
[B] O=C(c1ccccc1Br)N(Cc1cccc(-c2ccc3ncnc(N4CCCC4)c3c2)c1)C1CC1
inhibition at 10 µM comparison. Which is larger, A or B ? Could you answer with the label of the item you picked? A

[a] O=C(c1cccc(C(F)(F)F)c1)N(Cc1cccc(-c2cc(F)c3ncnc(NC4CC4)c3c2)c1)C1CC1
[b] O=C(c1ccco1)N(Cc1cccc(-c2cc(F)c3ncnc(NC4CC4)c3c2)c1)C1CC1
Lower value of inhibition at 10 µM belongs to which: a or b ? Pick one and reply with its label. a
(a: 63%, b: 93%)

----------
SYSTEM TESTED: mGluR5 receptor (Sus scrofa)
Construct: 450 μg of protein from brain homogenate with 5 nM ^3[H]-MPEP; from tissue; host or cells: pig brain halves without medulla, cerebellum and pons
ASSAY PROTOCOL: [3H]-MPEP mGluR5 receptor binding assay (pig brain homogenate)
MEASUREMENT CONTEXT: 10 μM compound, 5 nM [3H]-MPEP, read-out: % Inhibition of mGluR5 Receptor (pig) [^3H]-MPEP Bond at 10 μM
Experimental: I. Method for Determining the Inhibition of the [^3H]-MPEP Bond in the mGluR5 Receptor Binding Assay […] The batches are then filtered using a Brandel cell harvester (Brandel, Robotic 9600) on unifilter plates with fibreglass filter mats (Perkin Elmer, order no. 6005177) and then washed with buffer (as above) 3-times each with 250 μl per sample. […] The non-specific binding is determined by adding 10 μM of MPEP (Tocris, order no. 1212).
READOUT KIND: inhibition at 10 µM (%)

| MOLECULE | READING UNIT | MEASURED RESULT |
| --- | --- | --- |
| CC(=O)N(Cc1cncc(-c2ccc3ncnc(NC4CC4)c3c2)c1)C1CC1 [Example 240] | % | 47 |
| CCCN(Cc1cccc(-c2ccc3ncnc(Nc4ccccc4)c3c2)c1)C(=O)c1cc2ccccc2cn1 [Example 100] | % | 36 |
| Cc1nc(NC2CC2)c2cc(-c3ccc(F)c(CN(C(=O)c4ccncc4)C4CC4)c3)ccc2n1 [Example 608] | % | 36 |

----------
SYSTEM TESTED: mGluR5 receptor (Sus scrofa, UniProt I3LUI7)
Construct: 450 μg of protein from brain homogenate with 5 nM ^3[H]-MPEP; from tissue; host or cells: pig brain halves without medulla, cerebellum and pons
Sequence (I3LUI7 19-1212): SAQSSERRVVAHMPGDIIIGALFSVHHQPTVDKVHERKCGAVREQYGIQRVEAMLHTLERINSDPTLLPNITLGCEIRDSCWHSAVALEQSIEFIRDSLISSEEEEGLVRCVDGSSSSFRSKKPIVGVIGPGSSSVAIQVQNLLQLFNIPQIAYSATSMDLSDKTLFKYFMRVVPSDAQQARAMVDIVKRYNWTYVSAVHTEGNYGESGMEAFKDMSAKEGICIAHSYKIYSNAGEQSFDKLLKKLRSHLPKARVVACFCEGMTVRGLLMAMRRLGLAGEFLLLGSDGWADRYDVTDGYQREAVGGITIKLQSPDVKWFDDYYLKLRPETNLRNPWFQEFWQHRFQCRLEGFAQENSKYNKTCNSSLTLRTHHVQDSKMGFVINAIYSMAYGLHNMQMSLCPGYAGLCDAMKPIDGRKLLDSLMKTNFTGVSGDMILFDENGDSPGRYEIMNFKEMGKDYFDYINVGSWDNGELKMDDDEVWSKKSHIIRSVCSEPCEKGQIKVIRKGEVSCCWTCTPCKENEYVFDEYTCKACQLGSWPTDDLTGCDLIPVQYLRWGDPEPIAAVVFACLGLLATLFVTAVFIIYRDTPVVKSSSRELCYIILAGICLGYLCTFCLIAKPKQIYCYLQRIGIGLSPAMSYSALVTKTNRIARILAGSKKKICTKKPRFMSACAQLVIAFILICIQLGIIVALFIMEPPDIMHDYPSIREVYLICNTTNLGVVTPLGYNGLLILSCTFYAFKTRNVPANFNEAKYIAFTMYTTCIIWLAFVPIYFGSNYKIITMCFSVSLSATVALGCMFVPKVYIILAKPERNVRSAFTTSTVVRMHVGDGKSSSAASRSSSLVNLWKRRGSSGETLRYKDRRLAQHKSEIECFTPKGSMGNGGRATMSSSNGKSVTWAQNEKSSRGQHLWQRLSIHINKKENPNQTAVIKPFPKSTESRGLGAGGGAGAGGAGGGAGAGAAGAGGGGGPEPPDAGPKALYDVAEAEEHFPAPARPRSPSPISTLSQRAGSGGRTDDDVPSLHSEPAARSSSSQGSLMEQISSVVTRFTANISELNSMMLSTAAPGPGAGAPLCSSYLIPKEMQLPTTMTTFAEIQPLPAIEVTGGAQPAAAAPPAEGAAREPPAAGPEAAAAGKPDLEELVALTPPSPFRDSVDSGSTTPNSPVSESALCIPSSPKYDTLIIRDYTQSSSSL
ASSAY PROTOCOL: [3H]-MPEP mGluR5 receptor binding assay (pig brain homogenate)
MEASUREMENT CONTEXT: 10 μM compound, 5 nM [3H]-MPEP, read-out: % Inhibition of mGluR5 Receptor (pig) [^3H]-MPEP Bond at 10 μM
READOUT KIND: inhibition at 10 µM (%)

| COMPOUND | inhibition at 10 µM, % |
| --- | --- |
| CN(C)CC(=O)N(Cc1cc(-c2ccc3ncnc(NC4CC4)c3c2)ccc1Cl)C1CC1 [Example 733] | 39 |

[I] CCCN(Cc1cccc(-c2ccc3ncnc(Nc4ccccc4)c3c2)c1)C(=O)c1ccc(C)cc1 [Example 91]
[II] CC(C)Nc1ncnc2ccc(-c3cccc(CN(Cc4ccccc4)C(=O)c4ccsc4)c3)cc12 [Example 50]
Please indicate which item has the smaller measured inhibition at 10 µM: I versus II The response must carry the label of the picked entry. II

----------
SYSTEM TESTED: mGluR5 receptor (Sus scrofa)
Construct: 450 μg of protein from brain homogenate with 5 nM ^3[H]-MPEP; from tissue; host or cells: pig brain halves without medulla, cerebellum and pons
ASSAY PROTOCOL: [3H]-MPEP mGluR5 receptor binding assay (pig brain homogenate)
MEASUREMENT CONTEXT: 10 μM compound, 5 nM [3H]-MPEP, read-out: % Inhibition of mGluR5 Receptor (pig) [^3H]-MPEP Bond at 10 μM
Experimental: I. Method for Determining the Inhibition of the [^3H]-MPEP Bond in the mGluR5 Receptor Binding Assay […] The batches are then filtered using a Brandel cell harvester (Brandel, Robotic 9600) on unifilter plates with fibreglass filter mats (Perkin Elmer, order no. 6005177) and then washed with buffer (as above) 3-times each with 250 μl per sample. […] The non-specific binding is determined by adding 10 μM of MPEP (Tocris, order no. 1212).
READOUT KIND: inhibition at 10 µM (%)

Here is how some compounds turned out for inhibition at 10 µM.
| CHEMICAL STRUCTURE | SYSTEM TESTED | MEASURED RESULT |
| --- | --- | --- |
| O=C(CCc1ccccc1)N(Cc1cc(-c2ccc3ncnc(NC4CC4)c3c2)ccc1Cl)C1CC1 | mGluR5 receptor (Sus scrofa) | 69 |
| COc1ccc(C(=O)N(Cc2cccc(-c3cc4c(NC5CC5)ncnc4cc3C)c2)C2CC2)cc1OC | mGluR5 receptor (Sus scrofa) | 72 |

[A] CC(C)(C)Nc1ncnc2ccc(-c3ccc(F)c(CN(C(=O)Cc4ccccc4)C4CC4)c3)cc12
[B] O=C(C1CCCCC1)N(Cc1cccc(-c2cc(F)c3ncnc(NC4CC4)c3c2)c1)C1CC1
Which entry has a larger number for inhibition at 10 µM, A or B ? // caller expects the label of the chosen entry A

[P] CCCCC(=O)N(Cc1cc(-c2ccc3ncnc(NC4CC4)c3c2)ccn1)C1CC1
[Q] O=C(c1cccnc1)N(Cc1cccc(-c2cc(F)c3ncnc(NC4CC4)c3c2)c1)C1CC1
Which record would sort first by descending inhibition at 10 µM, P or Q ? Identify your selection by its label. Q
